Parameter: absorption maximum. Scope: all listed entries.
ASSAY SUMMARY: solvent given as SMILES
EXPERIMENTAL SETUP: in CCCCOCCCC
Please respond with the number in nm and leave the unit unwritten.

Consider the reported absorption maximum for these compounds:
>>> print(df.to_string())
                            chemical_smiles  meas_value
0     Clc1nc(Cl)nc(Nc2ccc3cc4ccccc4cc3c2)n1         395
1  COc1nc(Nc2ccc3c4cccc5cccc(c6cccc2c63)c54)nc(OC)n1         442

Query: absorption maximum; subject: "c1ccc(-c2nc(-c3ccc(-c4ccc(N(c5ccccc5)c5ccccc5)cc4)cn3)oc2-c2ccccc2)cc1"
353

Query: absorption maximum; subject: "c1ccc(-c2nn(-c3ccccc3)c3nc4ccccc4cc23)cc1"
398.57

Query: absorption maximum; subject: "c1ccc(N2c3ccccc3Sc3cc(-c4cccc5nc6ccccc6cc45)ccc32)cc1"
407

Query: absorption maximum; subject: "CC(C)(C)c1ccc(-c2nc3c4ccccc4c4ccccc4c3n2-c2ccc(C(C)(C)C)cc2)cc1"
315

Query: absorption maximum; subject: "CN(C)c1cc(C#N)c(N(C)C)c(C#N)c1"
387.6
